# MEASUREMENT_TARGET: HLA A*3201 (Homo sapiens, UniProt P04439, A270S/D101S/D185E/E176V/E277Q/F133L/G103R/G107R/G231S/H175R/I121M/I218V/I322F/K168Q/L105A/L300P/L318F/M331R/P208A/P217A/Q94H/R106L/R138Q/S129P/T104I/T323A/T345S/V100E/V321M/V358M)
# PROTOCOL: biochemical
# Type: binding
Where a SMILES comes first, the peptide text is derived from it.
TEST_READOUT: IC50 (nM)
Kindly answer with a numeric value in nM, unit omitted.

Which measured IC50 value corresponds to CC[C@H](C)[C@H](N)C(=O)N[C@H](C(=O)N[C@@H](C)C(=O)N[C@@H](Cc1c[nH]cn1)C(=O)N[C@@H](CC(C)C)C(=O)N[C@H](C(=O)N[C@@H](CC(N)=O)C(=O)N[C@@H](CO)C(=O)N[C@@H](CC(C)C)C(=O)O)C(C)C)[C@@H](C)O [3102.0503] (H-ITAHLVNSL-OH) ?
183

What does the data say about its IC50? Entry: CC[C@H](C)[C@H](NC(=O)[C@@H]1CCCN1C(=O)[C@H](Cc1c[nH]cn1)NC(=O)[C@H](CC(N)=O)NC(=O)[C@@H](NC(=O)[C@H](CC(=O)O)NC(=O)[C@H](CCSC)NC(=O)[C@@H](NC(=O)[C@@H](N)CO)[C@@H](C)O)C(C)C)C(=O)O [3102.0467] (H-STMDVNHPI-OH)
7.4

Give the measured IC50 of CC(C)C[C@H](NC(=O)CNC(=O)[C@H](C)NC(=O)[C@@H](NC(=O)[C@H](C)N)[C@@H](C)O)C(=O)N[C@@H](Cc1c[nH]cn1)C(=O)N[C@@H](CC(C)C)C(=O)NCC(=O)N[C@@H](Cc1ccccc1)C(=O)O [3102.0295] (H-ATAGLHLGF-OH) .
1.7

Bench note: what IC50 did CC[C@H](C)[C@H](NC(=O)[C@@H](NC(=O)[C@@H](N)CC(C)C)[C@@H](C)O)C(=O)N[C@@H](C)C(=O)N[C@@H](CS)C(=O)N[C@@H](CCCNC(=N)N)C(=O)N[C@H](C(=O)N[C@@H](CO)C(=O)N[C@@H](CC(C)C)C(=O)O)C(C)C [3102.0376] (H-LTIACRVSL-OH) show?
96

I have this molecule here, CC[C@H](C)[C@H](NC(=O)[C@H](CCC(=O)O)NC(=O)[C@@H](NC(=O)[C@@H](NC(=O)[C@H](CCC(=O)O)NC(=O)[C@H](CC(N)=O)NC(=O)[C@@H](NC(=O)[C@@H](N)CCCCN)[C@@H](C)CC)C(C)C)C(C)C)C(=O)N[C@@H](Cc1ccccc1)C(=O)O [3102.0471] (H-KINEVVEIF-OH) , and I need its recorded IC50.
19

Suppose we examine the molecule CC[C@H](C)[C@H](NC(=O)[C@H](CCC(=O)O)NC(=O)[C@H](Cc1ccccc1)NC(=O)[C@H](CO)NC(=O)[C@@H](N)CCCNC(=N)N)C(=O)N[C@H](C(=O)N[C@@H](CC(N)=O)C(=O)N[C@H](C(=O)N[C@@H](CC(C)C)C(=O)O)C(C)C)[C@@H](C)CC [3102.0322] (H-RSFEIINVL-OH) ; what IC50 value has been reported?
2.9

For the molecule shown here, CSCC[C@H](NC(=O)[C@H](Cc1ccc(O)cc1)NC(=O)[C@H](Cc1ccccc1)NC(=O)[C@H](CC(C)C)NC(=O)[C@@H](N)CCSC)C(=O)N[C@@H](CC(=O)O)C(=O)N[C@@H](CC(C)C)C(=O)N[C@@H](CO)C(=O)N[C@@H](Cc1ccc(O)cc1)C(=O)O [3102.0347] (H-MLFYMDLSY-OH) , give the reported IC50.
1.2
